Assay: Terbium(III) luminescence: determination of q
Type: physicochemical
Conditions: Tb(III) analogues 10a′-d′, D2O
endpointLabel: τD2O

Consider the reported τD2O for these compounds:
CCOC(=O)CCCNc1cc(COC(=O)NCCN2CCN(CC(=O)[O-])CCN(CC(=O)[O-])CCN(CC(=O)[O-])CC2)ccc1O[C@@H]1O[C@H](CO)[C@H](O)[C@H](O)[C@H]1O.[Tb+3] [10b′]	2.2(6) ms
CCOC(=O)CCCCCNc1cc(COC(=O)NCCN2CCN(CC(=O)[O-])CCN(CC(=O)[O-])CCN(CC(=O)[O-])CC2)ccc1O[C@@H]1O[C@H](CO)[C@H](O)[C@H](O)[C@H]1O.[Tb+3] [10c′]	2.2(9) ms
CCOC(=O)CNc1cc(COC(=O)NCCN2CCN(CC(=O)[O-])CCN(CC(=O)[O-])CCN(CC(=O)[O-])CC2)ccc1O[C@@H]1O[C@H](CO)[C@H](O)[C@H](O)[C@H]1O.[Tb+3] [10a′]	2.1(0) ms

As a next step, examine the compound that follows.
Ask: I'd like to know its τD2O. The compound in question is CCOC(=O)CCCCCCCNc1cc(COC(=O)NCCN2CCN(CC(=O)[O-])CCN(CC(=O)[O-])CCN(CC(=O)[O-])CC2)ccc1O[C@@H]1O[C@H](CO)[C@H](O)[C@H](O)[C@H]1O.[Tb+3] [10d′]
Result: 2.2(6) ms
